Taken from paper PMC3669666.

Target: frog AHR1β S294Q mutant (Xenopus laevis, UniProt Q4QY30, S294Q)
Assay: Transactivation
pEC50: −log10 of the molar value.

Compound: Clc1cc2c(cc1Cl)Oc1cc(Cl)c(Cl)cc1O2 [TCDD, 2,3,7,8-tetrachlorodibenzo-p-dioxin]
pEC50: 7.59

----------
Target: X. laevis AHR1β (Xenopus laevis, UniProt Q4QY30)
Experiment: Transactivation
Format: cell-based

Record Smiles: Clc1cc2c(cc1Cl)Oc1cc(Cl)c(Cl)cc1O2
EC50 [µM]: 0.0186

----------
Biological target: frog AHR1β A370S mutant (Xenopus laevis, UniProt Q4QY30, A370S)
Sequence (Q4QY30 1-834 A370S): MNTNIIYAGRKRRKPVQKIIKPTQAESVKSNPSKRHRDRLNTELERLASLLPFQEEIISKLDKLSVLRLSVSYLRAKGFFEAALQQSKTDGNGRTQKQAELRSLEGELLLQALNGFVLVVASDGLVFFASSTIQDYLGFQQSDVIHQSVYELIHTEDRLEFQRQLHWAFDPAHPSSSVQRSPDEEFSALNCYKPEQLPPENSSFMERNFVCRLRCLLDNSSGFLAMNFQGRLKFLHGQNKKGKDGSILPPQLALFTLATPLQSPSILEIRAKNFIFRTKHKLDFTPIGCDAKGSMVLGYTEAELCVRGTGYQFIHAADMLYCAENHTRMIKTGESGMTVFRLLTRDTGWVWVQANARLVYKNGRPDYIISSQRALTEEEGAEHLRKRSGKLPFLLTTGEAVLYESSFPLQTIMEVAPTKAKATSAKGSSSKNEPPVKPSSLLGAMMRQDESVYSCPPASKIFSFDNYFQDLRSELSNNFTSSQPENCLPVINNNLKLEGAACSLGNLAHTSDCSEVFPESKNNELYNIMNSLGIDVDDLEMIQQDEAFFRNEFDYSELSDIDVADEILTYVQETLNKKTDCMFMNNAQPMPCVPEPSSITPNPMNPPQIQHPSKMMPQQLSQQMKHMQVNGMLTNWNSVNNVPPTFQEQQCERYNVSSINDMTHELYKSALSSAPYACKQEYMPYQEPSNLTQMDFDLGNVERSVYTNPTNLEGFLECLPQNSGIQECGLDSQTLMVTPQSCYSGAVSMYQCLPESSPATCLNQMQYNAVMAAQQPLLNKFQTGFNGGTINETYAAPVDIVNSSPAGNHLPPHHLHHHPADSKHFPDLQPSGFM
Sequence (Q6P6Z6 1-765 partner): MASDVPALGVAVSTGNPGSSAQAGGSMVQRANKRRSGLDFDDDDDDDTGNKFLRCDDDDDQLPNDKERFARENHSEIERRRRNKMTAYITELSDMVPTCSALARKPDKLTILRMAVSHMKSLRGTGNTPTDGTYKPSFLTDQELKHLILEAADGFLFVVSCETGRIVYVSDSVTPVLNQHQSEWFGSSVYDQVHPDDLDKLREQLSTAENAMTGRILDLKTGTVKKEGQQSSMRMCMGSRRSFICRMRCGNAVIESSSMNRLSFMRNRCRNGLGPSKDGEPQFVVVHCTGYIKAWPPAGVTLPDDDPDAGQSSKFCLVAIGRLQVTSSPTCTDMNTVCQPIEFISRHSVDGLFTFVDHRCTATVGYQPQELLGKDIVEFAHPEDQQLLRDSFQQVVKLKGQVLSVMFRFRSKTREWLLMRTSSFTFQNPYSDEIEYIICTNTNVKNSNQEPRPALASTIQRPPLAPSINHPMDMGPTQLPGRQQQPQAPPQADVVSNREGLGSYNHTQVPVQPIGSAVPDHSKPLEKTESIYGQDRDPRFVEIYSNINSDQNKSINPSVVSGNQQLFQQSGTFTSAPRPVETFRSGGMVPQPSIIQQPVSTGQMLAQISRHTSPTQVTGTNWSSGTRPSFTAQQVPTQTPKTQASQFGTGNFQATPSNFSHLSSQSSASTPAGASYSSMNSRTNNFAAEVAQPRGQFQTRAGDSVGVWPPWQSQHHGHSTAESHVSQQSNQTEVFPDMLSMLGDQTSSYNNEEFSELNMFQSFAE
Assay: Transactivation
Assay type: cell-based
Conditions: read-out: EC50 for reporter gene induction; FICZ, (3 hr), COS-7 cells, A370S
pEC50: −log10 of the molar value.

Compound: O=Cc1c2[nH]c3ccccc3c2cc2[nH]c3ccccc3c12 [FICZ, 6-formylindolo[3,2b]carbazole]
pEC50: 10.40
